# System: Plasmodium falciparum Sir2 (PF13_0152, Sir2A)
# protocol-summary: pfSir2 binders on small-molecule microarrays, primary screen, biochemical, small-molecule microarray, 635 nm fluorescence (AID 1098);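 note: score merges spot fluorescence intensity with its signal-to-noise ratio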
# assay-conditions: small-molecule microarray binding, fluorescence 635 nm; higher = more signal
Lab note: class by composite z-score, see label 0 = under 0.4, label 1 = from 0.4 up to 0.7, label 2 = 0.7 and over

[
  {
    "compound": "CO[C@@H]1COC(=O)CC=C[C@@H](C)[C@@H]2C=C[C@H](O)[C@@H](COC(=O)[C@H](C)NC(=O)CC=C[C@H]1C)O2",
    "assigned-category": "label 2"
  },
  {
    "compound": "C=CC[C@@H]1C=C[C@H](ON=C[C@@H](OC)[C@H](C)C=CCC(=O)OC)[C@@H](CO)O1",
    "assigned-category": "label 0"
  },
  {
    "compound": "COC(=O)CC=C[C@H](C)[C@@H](OCc1ccccc1Br)C(C)C",
    "assigned-category": "label 0"
  },
  {
    "compound": "CC(CCN1CCc2nc(-c3ccccc3)c(-c3ccccc3)cc2C1)=NOC[C@@H](C)[C@H](OCc1ccccc1)C(C)C",
    "assigned-category": "label 2"
  },
  {
    "compound": "O=C1[C@H]2[C@H]3[C@H](O)[C@H](O)CC(=NO[C@@H]4O[C@H](CO)[C@@H](O)[C@H](O)[C@H]4O)[C@H]3CC[C@H]2C(=O)N1C1CCCCC1",
    "assigned-category": "label 1"
  },
  {
    "compound": "CCOC(=O)CCN1C(=O)[C@H]2[C@H]3[C@H](O)[C@H](O)CC(=O)[C@H]3CC[C@H]2C1=O",
    "assigned-category": "label 0"
  },
  {
    "compound": "CC(=O)O[C@H]1C2=C(C(=O)[C@@H]3O[C@@H]31)[C@H]1C(C)O[C@@H]2[C@@]23C(=O)[C@@H]4O[C@@H]4[C@@H](O)C2=CO[C@H](C)[C@@H]13 (stereo not given in full)",
    "assigned-category": "label 1"
  },
  {
    "compound": "CC(C)CON=C1[C@H]2CCn3c(=O)n(-c4ccccc4)c(=O)n3[C@H]2[C@H](O)[C@@H]2O[C@H]12",
    "assigned-category": "label 2"
  },
  {
    "compound": "COCCNC(=O)OCC1CCCC2(CC(OC(=O)NCCc3ccc(F)cc3)CC(CCC(=O)N[C@@H](C)C(=O)OC)O2)O1 (stereo not given in full)",
    "assigned-category": "label 2"
  },
  {
    "compound": "C#C[C@@H]1Oc2ccccc2S(=O)(=O)N2CCC[C@H]12",
    "assigned-category": "label 0"
  },
  {
    "compound": "COc1ccc(CCNC(=O)[C@@H]2c3ccccc3C(=O)N(c3ccc(C)cn3)[C@H]2c2ccc(CO)cc2)cc1",
    "assigned-category": "label 2"
  }
]

====

# protocol-summary: HepG2 cell viability effects, profiling panel, calcein-AM fluorescence, 48 h, basal (AID 1164); note: test concentration not given here
# assay-conditions: higher = more signal
Use class 1 when the recorded z-score is no lower than -0.3; use class 0 when it is lower.

[
  {
    "molecule": "CC(CCC(=O)OC[C@H]1O[C@H](C#Cc2ccccc2)C=C[C@@H]1Oc1ccc(C)cc1)=NOC[C@@H](O)[C@H]1O[C@@H]2OC(C)(C)O[C@@H]2[C@H]1O",
    "assigned-category": "class 1"
  },
  {
    "molecule": "CC(C)(C)OC(=O)CC[C@]1(C(N)=O)COC(c2ccc(OCCCO)cc2)=N1",
    "assigned-category": "class 1"
  },
  {
    "molecule": "COC(=O)[C@@]1(Cc2ccc(OC)cc2)[C@H]2c3cc(C(=O)N4CCCC4)n(Cc4cc(F)c(F)c(F)c4)c3C[C@H]2CN1C(=O)c1ccccc1",
    "assigned-category": "class 0"
  },
  {
    "molecule": "CC(CCC(=O)OC[C@H]1O[C@H](C#Cc2ccccc2)C=C[C@@H]1Oc1ccc(C)cc1)=NO[C@@H](C)c1cn([C@H](CO)Cc2ccccc2)nn1",
    "assigned-category": "class 0"
  },
  {
    "molecule": "CCN1C(=O)[C@H]2[C@H]3[C@H](O)C=CC(=O)[C@@H]3CC[C@H]2C1=O",
    "assigned-category": "class 1"
  },
  {
    "molecule": "CCOC(=O)CCN1C(=O)[C@H]2[C@H]3[C@H](O)[C@H](O)CC(=NOC[C@@H](O)COCc4ccco4)[C@@H]3CC[C@H]2C1=O",
    "assigned-category": "class 0"
  },
  {
    "molecule": "O=C1O[C@@H](c2ccccc2)[C@@H](c2ccccc2)N2[C@@H](c3ccccc3OCCO)[C@]3(C(=O)Nc4ccc(C#CCCO)cc43)[C@@H](C(=O)O)[C@H]12",
    "assigned-category": "class 1"
  },
  {
    "molecule": "COCCCNC(=O)[C@@]1(CCS(=O)(=O)c2ccccc2)N=C(c2ccc(OCCCO)cc2)O[C@H]1c1ccccc1",
    "assigned-category": "class 1"
  },
  {
    "molecule": "CC=CC1=C(CO)[C@H](O)[C@H]2O[C@H]2[C@H]1O",
    "assigned-category": "class 0"
  },
  {
    "molecule": "O=C1[C@H]2[C@H]3[C@H](O)[C@H](O)CC(=NO[C@@H]4O[C@H](CO)[C@@H](O)[C@H](O)[C@H]4O)[C@@H]3CC[C@H]2C(=O)N1Cc1ccccc1",
    "assigned-category": "class 0"
  },
  {
    "molecule": "COCCCNC(=O)[C@]1(Cc2ccccc2)N=C(c2ccc(OCCCO)cc2)O[C@@H]1c1ccccc1",
    "assigned-category": "class 1"
  },
  {
    "molecule": "COCCOC(=O)N1C(=O)[C@@]2(c3cc(C#CC4(O)CCCCCC4)ccc31)[C@H](c1ccc(OCCO)cc1)N1[C@H](c3ccccc3)[C@H](c3ccccc3)OC(=O)[C@H]1[C@@H]2C(=O)NC[C@H](O)c1ccccc1",
    "assigned-category": "class 1"
  },
  {
    "molecule": "COCCOC(=O)N1C(=O)[C@@]2(c3cc(C#Cc4ccc(OC)cc4)ccc31)[C@H](C(=O)N1CCN(c3ncccn3)CC1)[C@H]1C(=O)O[C@H](c3ccccc3)[C@H](c3ccccc3)N1[C@@H]2c1ccc(OCCO)cc1",
    "assigned-category": "class 1"
  },
  {
    "molecule": "O=C1NC(=O)C2C1C=CC(C(O)Cc1ccccc1)N2Nc1ccccn1 (centres undefined)",
    "assigned-category": "class 1"
  }
]
